Readout: logP
// response body must contain only the number

### Prompt Consider the molecule "Nc1ccccc1" and give its measured logP.
### Response 1.08

* * *

Readout: logP
// response body must contain only the number

N#Cc1cc(Br)c(O)c(Br)c1
2.7

Below: the item to evaluate.
### Prompt Consider the compound "O=C(O)c1ccccc1C(=O)Nc1cccc2ccccc12" and give its measured logP.
### Response 3

* * *

Readout: logP
// response body must contain only the number

### Prompt Consider the compound CCS(=O)CCSP(=O)(OC)OC (stereo unspecified) and give its measured logP.
### Response -0.74
